Where do these numbers come from? They come from BindingDB's records for doi:10.1021/jm050559f.

experimental_system: Vascular endothelial growth factor receptor 2 (Homo sapiens, UniProt P35968)
Sequence (P35968 whole entry): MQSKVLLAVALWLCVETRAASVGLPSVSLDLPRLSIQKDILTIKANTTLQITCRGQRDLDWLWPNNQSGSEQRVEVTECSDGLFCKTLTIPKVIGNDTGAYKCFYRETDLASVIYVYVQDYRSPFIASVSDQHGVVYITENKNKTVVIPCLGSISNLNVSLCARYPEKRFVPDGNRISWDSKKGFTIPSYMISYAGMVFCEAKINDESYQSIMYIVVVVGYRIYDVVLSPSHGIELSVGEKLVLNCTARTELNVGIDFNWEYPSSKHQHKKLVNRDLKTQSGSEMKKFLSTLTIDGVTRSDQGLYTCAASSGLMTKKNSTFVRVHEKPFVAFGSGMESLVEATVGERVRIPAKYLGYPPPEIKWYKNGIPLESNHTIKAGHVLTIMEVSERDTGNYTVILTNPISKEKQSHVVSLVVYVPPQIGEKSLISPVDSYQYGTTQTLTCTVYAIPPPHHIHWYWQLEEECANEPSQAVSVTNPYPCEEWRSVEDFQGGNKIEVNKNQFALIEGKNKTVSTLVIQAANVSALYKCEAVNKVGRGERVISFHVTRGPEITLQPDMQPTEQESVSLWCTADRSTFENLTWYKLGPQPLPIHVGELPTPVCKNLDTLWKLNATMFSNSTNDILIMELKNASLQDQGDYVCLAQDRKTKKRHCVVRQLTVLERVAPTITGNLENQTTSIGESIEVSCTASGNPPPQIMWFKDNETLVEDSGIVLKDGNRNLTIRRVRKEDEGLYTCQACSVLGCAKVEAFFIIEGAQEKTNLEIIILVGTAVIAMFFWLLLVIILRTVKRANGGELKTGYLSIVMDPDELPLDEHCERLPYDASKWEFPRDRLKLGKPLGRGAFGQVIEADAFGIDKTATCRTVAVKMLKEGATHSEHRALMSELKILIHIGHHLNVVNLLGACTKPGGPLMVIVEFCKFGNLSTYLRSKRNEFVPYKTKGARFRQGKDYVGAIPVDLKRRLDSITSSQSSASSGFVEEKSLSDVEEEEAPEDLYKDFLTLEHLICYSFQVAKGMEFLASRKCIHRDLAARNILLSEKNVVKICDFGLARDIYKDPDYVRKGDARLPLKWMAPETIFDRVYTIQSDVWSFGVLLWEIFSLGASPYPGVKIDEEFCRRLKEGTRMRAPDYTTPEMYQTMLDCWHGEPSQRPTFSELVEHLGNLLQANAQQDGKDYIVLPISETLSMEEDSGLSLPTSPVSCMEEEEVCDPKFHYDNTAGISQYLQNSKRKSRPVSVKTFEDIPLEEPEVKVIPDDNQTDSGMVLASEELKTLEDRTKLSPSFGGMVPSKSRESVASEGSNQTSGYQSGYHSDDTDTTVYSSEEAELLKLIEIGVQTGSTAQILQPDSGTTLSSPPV
assay_summary: Inhibition of poly(Glu4-Tyr)peptide phosphorylation by recombinant VEGFR2 at 10 uM ATP and in presence of 100 uM glutathione
pIC50: −log10 of the molar value.

molecule | pIC50
COCCOc1cc2ncnc(N=C3C(=O)C(OC)=CC(=O)C3Sc3ccccn3)c2cc1OC (stereo unspecified) | < 6.00

====

experimental_system: UniProt:P35968
assay_summary: Inhibition of poly(Glu4-Tyr)peptide phosphorylation by recombinant VEGFR2 at 10 uM ATP
metric: IC50

compound | endpoint_value
COCCOc1cc2ncnc(N=C3C(=O)C(OC)=CC(=O)C3Sc3ccccn3)c2cc1OC (stereo unspecified) | > 1 µM
